- System: RPMI-8226 leukemia
- TEST_DESCRIPTION: NCI-60 one-dose screen, 48 h (100 = growth as untreated, 0 = no growth, -100 = all killed)
- EXPERIMENTAL_CONDITIONS: 10 µM
The panel holds about 83,000 compounds, 20% with a hit somewhere; the sample as a whole holds those more often.
Exam item: assign MET to entries whose growth is below 80% and NOT MET to entries at or above 80%. Note that a value of exactly 80% receives NOT MET.

- CCCCOC(=O)Oc1ccc(C(=O)Oc2ccc(OCC)cc2)cc1: MET
- NC(=O)SCC(=O)Nc1ccc(S(N)(=O)=O)cc1: NOT MET
- CSc1nn(-c2ccccc2)c2ncnc(Oc3ccccc3)c12: NOT MET
- Cc1cc2c(C)c3cc(C)c(N)cc3nc2cc1N: MET
- NC1(C(=O)O)CSSC1: NOT MET

IN: Say whether its growth is strictly beneath 80%. Entry: CCCCN(CCCC)CCCCCCCCC(O)c1cc2ccccc2c2ccccc12 (stereo not drawn)
OUT: MET

IN: Lookup "CC(C)(C)c1ccc(N2CSC(=S)N(c3ccc(C(C)(C)C)cc3)C2)cc1"
OUT: MET

IN: Request: "COc1ccc(/C=C/C(C)=N/OCC(=O)O)cc1"
OUT: NOT MET
